Where these numbers come from: ChEMBL document CHEMBL1146211

Molecular target: Protein kinase C delta type (Mus musculus)
Assay: Binding affinity to mouse PKC delta C1a Q27E mutant expressed in Escherichia coli
pKd: −log10 of the molar value.
quantity_name: pKd

INSERT INTO results (smiles, assay_result) VALUES
  ('CCCC(=O)O[C@@H]1[C@@H](C)[C@@]2(O)[C@@H](C=C(CO)C[C@]3(O)C(=O)C(C)=C[C@@H]23)[C@@H]2C(C)(C)[C@]12OC(=O)CCC', 6.42);

* * *

Target: Protein kinase C delta type (Mus musculus, UniProt P28867, Q257E)
Sequence (P28867 whole entry Q257E): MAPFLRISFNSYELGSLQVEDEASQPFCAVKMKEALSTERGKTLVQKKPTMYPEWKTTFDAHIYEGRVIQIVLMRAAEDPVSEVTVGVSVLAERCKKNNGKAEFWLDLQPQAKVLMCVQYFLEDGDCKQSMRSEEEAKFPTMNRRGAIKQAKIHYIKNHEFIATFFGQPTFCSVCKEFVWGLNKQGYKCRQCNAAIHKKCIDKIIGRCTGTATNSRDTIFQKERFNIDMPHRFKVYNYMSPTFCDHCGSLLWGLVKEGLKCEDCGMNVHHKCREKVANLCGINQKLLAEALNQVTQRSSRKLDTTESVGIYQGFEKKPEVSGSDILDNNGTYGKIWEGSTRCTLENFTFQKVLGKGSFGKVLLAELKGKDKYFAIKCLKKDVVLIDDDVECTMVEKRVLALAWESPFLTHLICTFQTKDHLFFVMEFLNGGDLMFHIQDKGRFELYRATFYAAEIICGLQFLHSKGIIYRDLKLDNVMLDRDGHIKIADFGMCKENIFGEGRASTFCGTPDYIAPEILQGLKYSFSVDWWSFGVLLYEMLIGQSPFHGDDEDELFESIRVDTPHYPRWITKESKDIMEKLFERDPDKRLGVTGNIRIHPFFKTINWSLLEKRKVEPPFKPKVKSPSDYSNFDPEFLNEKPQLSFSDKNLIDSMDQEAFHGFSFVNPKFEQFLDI
Experiment: Displacement of [3H]PDBu from mouse PKCdelta C1b Q27E mutant expressed in Escherichia coli
pKi: −log10 of the molar value.
pKi vs 7: at or above is 1, below is 0.

INSERT INTO measurements (compound, class) VALUES
  ('CC(C)CC(=O)OCC1(CO)C/C(=C/CC(CC(C)C)CC(C)C)C(=O)O1 (configuration not stated)', 1),
  ('CC(C)CC(=O)OCC1(CO)OC(=O)/C(=C\CC(CC(C)C)CC(C)C)O1 (configuration not stated)', 0),
  ('CC(C)CC(C/C=C1/CC(CO)(COC(=O)C(C)(C)C)OC1=O)CC(C)C (configuration not stated)', 1),
  ('CC(C)CC(C/C=C1/OC(CO)(COC(=O)C(C)(C)C)OC1=O)CC(C)C (configuration not stated)', 0),
  ('CCCC(=O)O[C@@H]1[C@@H](C)[C@@]2(O)[C@@H](C=C(CO)C[C@]3(O)C(=O)C(C)=C[C@@H]23)[C@@H]2C(C)(C)[C@]12OC(=O)CCC', 1),
  ('CC(C)C/C=C1/OC(CO)(COC(=O)CC(CC(C)C)CC(C)C)OC1=O (configuration not stated)', 0);

* * *

Target: Protein kinase C alpha type (Mus musculus, UniProt P20444)
Test: Displacement of [3H]PDBu from mouse recombinant PKCalpha expressed in Escherichia coli
pKi: −log10 of the molar value.
quantity_name: pKi

INSERT INTO measurements (compound, assay_result) VALUES
  ('CC(C)CC=C1OC(CO)(COC(=O)CC(CC(C)C)CC(C)C)OC1=O (stereo unspecified)', 8.24),
  ('CC(C)CC(=O)OCC1(CO)C/C(=C/CC(CC(C)C)CC(C)C)C(=O)O1 (stereo unspecified)', 8.46),
  ('CC(C)C/C=C1/CC(CO)(COC(=O)CC(CC(C)C)CC(C)C)OC1=O (stereo unspecified)', 8.51),
  ('CC(C)CC(=O)OCC1(CO)OC(=O)/C(=C\CC(CC(C)C)CC(C)C)O1 (stereo unspecified)', 7.70),
  ('CC(C)CC(CC=C1OC(CO)(COC(=O)C(C)(C)C)OC1=O)CC(C)C (stereo unspecified)', 8.19),
  ('CC(C)CC(C/C=C1/CC(CO)(COC(=O)C(C)(C)C)OC1=O)CC(C)C (stereo unspecified)', 8.54);

* * *

Biological target: Protein kinase C delta type (Mus musculus)
Test: Binding affinity to mouse wild-type PKCdelta C1a expressed in Escherichia coli
quantity_name: Kd

INSERT INTO results (smiles, quantity_name, assay_result) VALUES
  ('CCCC(=O)O[C@@H]1[C@@H](C)[C@@]2(O)[C@@H](C=C(CO)C[C@]3(O)C(=O)C(C)=C[C@@H]23)[C@@H]2C(C)(C)[C@]12OC(=O)CCC', 'Kd', '2.04 nM');
